# system.under.test: guanylyl cyclase (GC-C) receptor (Homo sapiens, UniProt P25092)
# Construct: stimulation of cGMP in T84 cell cultures may be used as an efficacy assay; endogenous in cells; host or cells: T84 (human colon carcinoma cell line)
# Sequence (P25092 24-1073): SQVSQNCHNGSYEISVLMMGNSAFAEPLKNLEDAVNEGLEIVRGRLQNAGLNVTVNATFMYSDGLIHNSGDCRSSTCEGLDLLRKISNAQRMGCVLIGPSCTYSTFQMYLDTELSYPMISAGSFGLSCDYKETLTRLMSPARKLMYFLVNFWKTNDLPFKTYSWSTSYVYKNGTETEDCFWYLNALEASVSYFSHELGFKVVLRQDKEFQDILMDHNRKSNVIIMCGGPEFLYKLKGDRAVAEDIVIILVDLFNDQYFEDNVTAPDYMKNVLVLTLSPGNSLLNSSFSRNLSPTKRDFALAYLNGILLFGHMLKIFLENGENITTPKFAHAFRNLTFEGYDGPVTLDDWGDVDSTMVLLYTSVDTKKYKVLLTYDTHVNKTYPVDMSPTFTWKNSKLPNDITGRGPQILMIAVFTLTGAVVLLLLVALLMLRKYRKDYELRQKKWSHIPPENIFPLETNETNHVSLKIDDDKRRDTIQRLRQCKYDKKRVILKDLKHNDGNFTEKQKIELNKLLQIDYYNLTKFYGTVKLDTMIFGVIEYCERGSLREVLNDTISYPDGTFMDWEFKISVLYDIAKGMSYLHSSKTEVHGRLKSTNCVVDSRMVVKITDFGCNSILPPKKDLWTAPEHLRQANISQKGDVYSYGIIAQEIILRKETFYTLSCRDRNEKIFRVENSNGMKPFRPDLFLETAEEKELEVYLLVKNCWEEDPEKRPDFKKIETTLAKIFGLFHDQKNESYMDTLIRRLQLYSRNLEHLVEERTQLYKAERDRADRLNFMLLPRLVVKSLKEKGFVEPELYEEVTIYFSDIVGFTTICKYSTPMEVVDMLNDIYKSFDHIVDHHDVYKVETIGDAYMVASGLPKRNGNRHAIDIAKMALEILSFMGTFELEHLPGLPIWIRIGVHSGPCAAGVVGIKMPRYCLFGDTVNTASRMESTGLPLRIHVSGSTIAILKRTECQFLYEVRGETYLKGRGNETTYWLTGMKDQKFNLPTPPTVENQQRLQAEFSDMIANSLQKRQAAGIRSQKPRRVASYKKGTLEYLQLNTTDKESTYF
# method: cGMP-efficacy on T84 cells (stimulation of cGMP formation)
# Assay type: cell-based
# details: cGMP formation in T84 cells, efficacy assay of Example 1; read-out: EC50
Bridge positions count the residues as written; N and C are the ends. Peptide text beside a SMILES is read from it.
recorded.metric: EC50
Value and unit, in that order.

input: Give guanylyl cyclase (GC-C) receptor (Homo sapiens, UniProt P25092) EC50 for CC[C@H](C)[C@@H]1NC(=O)[C@H](CCC(=O)O)NC(=O)[C@@H](NC(=O)[C@@H](NC(=O)[C@H](CC(N)=O)NC(=O)[C@@H]2CCCN2)[C@@H](C)O)CSSC[C@@H]2NC(=O)[C@H](C)NC(=O)[C@H](C)NC(=O)[C@H](Cc3ccc(O)cc3)NC(=O)[C@H](C)NC(=O)[C@H](CSSC[C@@H](C(N)=O)NC(=O)CNC(=O)[C@H]([C@@H](C)O)NC2=O)NC1=O [Compound 1] (H-PNTCEICAYAACTGC-NH2; disulfide 4-12, 7-15)
output: 6.1 µM

====

# system.under.test: guanylyl cyclase (GC-C) receptor (Homo sapiens)
# Construct: stimulation of cGMP in T84 cell cultures may be used as an efficacy assay; endogenous in cells; host or cells: T84 (human colon carcinoma cell line)
# method: cGMP-efficacy on T84 cells (stimulation of cGMP formation)
# Type: cell-based
# details: cGMP formation in T84 cells, efficacy assay of Example 1; read-out: EC50
Bridge positions count the residues as written; N and C are the ends. Peptide text beside a SMILES is read from it.
recorded.metric: pEC50
A value of pEC50 is the negative decimal logarithm of a concentration given in moles per litre.

input: Consider the compound CC[C@H](C)[C@@H]1NC(=O)[C@H](CCC(=O)O)NC(=O)[C@@H](NC(=O)[C@@H](N)[C@@H](C)O)CSSC[C@@H]2NC(=O)[C@H](C)NC(=O)[C@H](C)NC(=O)[C@H](Cc3ccccc3)NC(=O)[C@H](C)NC(=O)[C@H](CSSC[C@@H](C(=O)N[C@@H](CC(C)C)C(N)=O)NC(=O)CNC(=O)[C@H]([C@@H](C)O)NC2=O)NC1=O [Compound 5] (H-TCEICAFAACTGCL-NH2; disulfide 2-10, 5-13 (inferred)) and give its measured pEC50.
output: 4.55

input: Further, for CC[C@H](C)[C@@H]1NC(=O)[C@H](CCC(=O)O)NC(=O)[C@@H](NC(=O)[C@@H](N)[C@@H](C)O)CSSC[C@@H]2NC(=O)[C@H](C)NC(=O)[C@H](C)NC(=O)[C@H](Cc3ccc(O)cc3)NC(=O)[C@H](C)NC(=O)[C@H](CSSC[C@@H](C(=O)N[C@@H](CC(C)C)C(=O)N[C@@H](CCCCN)C(=O)N[C@@H](CCCCN)C(N)=O)NC(=O)CNC(=O)[C@H]([C@@H](C)O)NC2=O)NC1=O [Compound 8] (H-TCEICAYAACTGCLKK-NH2; disulfide 2-10, 5-13) ?
output: 4.54
